- assay-remarks: growth effects on S. cerevisiae YJM789 – YJM789 clinical isolate, OD600, 24 h, basal, primary screen (AID 1089);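 note: growth of clinical yeast isolate S. cerevisiae YJM 789 seeded 1000 cells per well; test concentration not given here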
- experimental-setup: higher = more signal, called active from +8 up or from −8 down
Param threshold (0.1) applies to z-score; output Yes when value >= threshold, No when value < threshold.

- compound: "O=C1[C@@H]2[C@@H](CC(COc3ccccc3)=C([C@H](O)CCc3ccccc3)[C@@H]2CO)C(=O)N1Cc1ccccc1"
  category-label: "Yes"
- compound: "COCCOC(=O)N1C(=O)[C@@]2(c3cc(C#CCCO)ccc31)[C@H](C(N)=O)[C@H]1C(=O)O[C@H](c3ccccc3)[C@H](c3ccccc3)N1[C@@H]2c1ccccc1OCCO"
  category-label: "Yes"
- compound: "C=CCC(OC(C)=O)[C@@H]1[C@@H](N(Cc2cccc3ccccc23)C(=O)Cc2ccc(OC)cc2)c2cc(OCCCO)ccc2N1C(=O)Cc1ccc2ccccc2c1 (stereo partly specified)"
  category-label: "No"
- compound: "CCOC(=O)C[C@H]1[C@H](OC(=O)Cc2ccc3c(c2)OCO3)[C@@H](NC(=O)c2ccc3ccccc3n2)c2cc(OCCCO)ccc2N1C(=O)Cc1ccc(OC)cc1"
  category-label: "No"
- compound: "C[C@@H]1NC(=O)C([C@@H](C)OCc2ccccc2)NC(=O)[C@@]23C(=O)N[C@@H](Cc4ccccc4)C2[C@H](C)[C@@]2(C)O[C@H]2C3/C=C/C/C=C\\CNC1=O (stereo partly specified)"
  category-label: "Yes"

Proceed to the following item.
In plain terms: is recorded z-score at least 0.1 for COc1ccc(NN2C(C(O)c3ccc(I)cc3)C=CC3C(=O)N(C4CCCCC4)C(=O)C32)cc1 (stereo unspecified) ?
Yes

----------
- assay-remarks: small molecules captured by biotinylated probe aFGF10 – biochemical, small-molecule microarray, fluorescence 635/667, stem cell growth factor project, primary screen (AID 1071);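 note: score merges 667 nm spot intensity and signal to noise from triplicate slides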
- experimental-setup: higher = more signal
quantity-name: composite z-score
Kindly provide the number alone.

# example entries with known answers
- molecule: "CN(C)CCCCNC(=O)[C@H]1C[C@H]2C(=O)N3CCC[C@H]3C(=O)N2[C@H]1c1cccc(OCCO)c1"
  composite z-score: 0.0348
- molecule: "O=C1C2C=CC(C(O)C3CCCCC3)N(n3cnnc3)C2C(=O)N1Cc1ccccc1 (stereo not drawn)"
  composite z-score: 0.792
- molecule: "Cc1ccc(N2C(=O)c3ccccc3[C@](C)(C(=O)NCCCN(C)C)[C@@H]2c2ccc(CO)cc2)nc1"
  composite z-score: -0.436
- molecule: "COc1cc(C(O)C2C=CC3C(=O)N(c4ccccc4)C(=O)C3N2Nc2ccccc2)cc(OC)c1OC (stereo not drawn)"
  composite z-score: 1.14

Provide only the value of recorded composite z-score for CC1CC/C=C\[C@H]2OC34C=CCN(Cc5ccccc5)C(=O)[C@H]3N(CCCCCCO)C(=O)[C@@H]4C2C(=O)O1 (stereo partly drawn)
-0.994

Provide only the value of recorded composite z-score for COc1ccc(NN2C(C(O)c3ccc(I)cc3)C=CC3C(=O)N(C4CCCCC4)C(=O)C32)cc1 (stereo not drawn)
0.896

Provide only the value of recorded composite z-score for CC(C)=CCCC(C)=CC(O)C1C=CC2C(=O)NC(=O)C2N1Nc1ccc(Cl)cc1Cl (stereo not drawn)
0.214

Provide only the value of recorded composite z-score for `O=C1O[C@H](c2ccccc2)[C@H](c2ccccc2)N2[C@H]1[C@@H](C(=O)N1CCN(c3ncccn3)CC1)[C@]1(C(=O)Nc3ccc(C#CCCO)cc31)[C@H]2c1ccc(O)cc1`
0.597
